- Tested on: Sustained ventricular tachycardia induced by electrical pacing of infarcted dog heart
- run description: Antiarrhythmic activity on sustained ventricular tachycardia induced by electrical pacing of infarcted dog heart
- Assay type: in vivo
- condition: 3mg/kg
parameter: Effect on SVT

>  <compound>
O=C(c1ccccc1)N1CC2CSCC(C2)C1

>  <observed measurement>
Reduced

$$$$
>  <compound>
O=C1C2CC(CN(Cc3ccccc3)C2)CN1Cc1ccccc1 (centres unmarked)

>  <observed measurement>
Reduced

$$$$
>  <compound>
COC1(OC)C2CN(Cc3ccccc3)CC1CN(Cc1ccccc1)C2

>  <observed measurement>
Reduced

$$$$
